test_protocol: in vitro
assay_conditions: dog, TOX MDCK CC50
observation_type: CC50 at 3 days (µM)
Write down the numeric answer in µM and omit the unit.

Below, 3 compounds whose answers are already recorded.
> print(dat)
                                   compound  observation.type  unit.label  observed
1  O=C(N[C@@H]1CCC[C@H](Nc2nc(-c3c[nH]c4c(F)cc(F)cc34)ncc2F)C1)c1ccc2ncccc2n1 [Compound 100]    CC50 at 3 days          µM      12.4
2  Cc1cc(C(=O)N[C@@H]2CCC[C@H](Nc3nc(-c4c[nH]c5c(F)cc(F)cc45)ncc3F)C2)n(C)n1 [Compound 116]    CC50 at 3 days          µM       5.8
3  Cc1[nH]nc(C(=O)N[C@@H]2CCC[C@H](Nc3nc(-c4c[nH]c5c(F)cc(F)cc45)ncc3F)C2)c1N [Compound 86]    CC50 at 3 days          µM       3.1

Consider the additional compound presented here.
Entry Cc1cc(F)c2[nH]cc(-c3ncc(F)c(N[C@@H]4CCC[C@@H](NC(=O)c5cn(C)cn5)C4)n3)c2c1 (racemic) [Compound 196] , CC50 at 3 days reported as 10.3

====

test_protocol: in vitro
assay_conditions: dog, TOX MDCK CC50
observation_type: CC50 at 3 days

Below, 5 molecules whose answers are already recorded.
> print(dat)
                                   molecule  observed
1  O=C(N[C@@H]1CCC[C@H](Nc2nc(-c3c[nH]c4c(F)ccc(F)c34)ncc2F)C1)N1CCCC1 (racemic)   > 25 µM
2  NC(=O)c1cc(F)c(N[C@@H]2CCC[C@H](NC(=O)N3CCCC3)C2)nc1-c1c[nH]c2c(F)cc(F)cc12 (racemic)   > 25 µM
3  Cn1nnnc1C(=O)N[C@@H]1CCC[C@H](Nc2nc(-c3c[nH]c4c(F)cc(F)cc34)ncc2F)C1    > 5 µM
4  CCn1nccc1C(=O)N[C@@H]1CCC[C@H](Nc2nc(-c3c[nH]c4c(F)cc(Cl)cc34)ncc2F)C1   > 25 µM
5  Cn1ncnc1C(=O)N[C@@H]1CCC[C@H](Nc2nc(-c3c[nH]c4c(F)cc(F)cc34)ncc2F)C1   > 25 µM

Consider the additional molecule presented here.
Entry Cn1cnc(C(=O)N[C@@H]2CCC[C@H](Nc3nc(-c4c[nH]c5c(F)cc(F)cc45)c(C#N)cc3F)C2)c1 [Compound 184] , CC50 at 3 days reported as > 25 µM

Data origin: patent US10597390B2
